The measurements presented in this section are drawn from ChEMBL document CHEMBL1201862.

- TARGET DESC: Cytochrome P450 3A4 (Homo sapiens, UniProt P08684);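 note: confirmatory qHTS run detecting inhibitors and substrates of CYP3A4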
- Sequence (P08684 whole entry): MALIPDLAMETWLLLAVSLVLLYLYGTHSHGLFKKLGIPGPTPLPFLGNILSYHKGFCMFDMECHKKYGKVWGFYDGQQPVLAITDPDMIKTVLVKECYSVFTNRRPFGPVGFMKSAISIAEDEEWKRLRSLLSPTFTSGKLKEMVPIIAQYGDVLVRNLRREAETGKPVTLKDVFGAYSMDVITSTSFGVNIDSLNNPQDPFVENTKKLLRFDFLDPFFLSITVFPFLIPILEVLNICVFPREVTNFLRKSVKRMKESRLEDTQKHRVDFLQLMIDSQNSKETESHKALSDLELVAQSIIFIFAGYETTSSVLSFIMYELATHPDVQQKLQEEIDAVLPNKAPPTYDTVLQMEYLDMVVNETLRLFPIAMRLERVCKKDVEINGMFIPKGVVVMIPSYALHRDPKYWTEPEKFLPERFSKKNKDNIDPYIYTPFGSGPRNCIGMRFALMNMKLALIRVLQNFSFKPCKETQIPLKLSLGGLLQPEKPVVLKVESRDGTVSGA
- PARTICULARS: Potency
So I've got a bunch of molecules here, and I need their AC50 values.

QUERY: For the molecule COCCNC(=O)C1(CC(C)C)C=CCN1C(=O)OC (stereo not given) , what AC50 is on record?
RESULT: 0.1 µM (inconclusive)

QUERY: Also `Cc1ccc(O)c(/N=N\c2ccccc2)n1` ?
RESULT: 5.01 µM (inconclusive)

QUERY: Also CC1(C)CCCC2(C)C3C(O)CC2(C)C(O)C31 (stereo not given) ?
RESULT: 31.6 µM (inconclusive)

QUERY: Also CCOC(=O)C1=CC(OC(CC)CC)C(NC(C)=O)C(N)C1 (stereo not given) ?
RESULT: 25.1 µM (inconclusive)

QUERY: Also `O=C(N/N=C\c1ccccc1O)c1ccccc1O` ?
RESULT: 6.31 µM (inconclusive)

====

Measured AC50 (UniProt:P05177)
Sequence (P05177 whole entry): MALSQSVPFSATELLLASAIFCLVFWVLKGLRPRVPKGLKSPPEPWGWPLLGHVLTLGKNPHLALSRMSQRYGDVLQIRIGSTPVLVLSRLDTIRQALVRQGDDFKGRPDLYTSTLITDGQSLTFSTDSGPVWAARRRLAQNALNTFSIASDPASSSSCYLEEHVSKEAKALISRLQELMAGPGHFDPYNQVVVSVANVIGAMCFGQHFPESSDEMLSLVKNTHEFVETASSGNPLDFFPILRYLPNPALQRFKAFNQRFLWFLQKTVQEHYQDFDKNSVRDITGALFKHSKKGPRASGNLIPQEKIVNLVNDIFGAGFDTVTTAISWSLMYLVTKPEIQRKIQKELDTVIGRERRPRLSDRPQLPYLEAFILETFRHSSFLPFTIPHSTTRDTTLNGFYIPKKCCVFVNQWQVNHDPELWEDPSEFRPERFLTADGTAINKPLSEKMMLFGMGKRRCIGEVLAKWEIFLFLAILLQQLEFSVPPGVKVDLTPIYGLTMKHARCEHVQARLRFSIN

QUERY: For the molecule `Cc1cccc(-n2c(=O)c3c(n4cnnc24)-c2ccccc2CC32CCCCC2)c1` , what AC50 is on record?
RESULT: 22.4 µM (inconclusive)

QUERY: Also `O=C1CS/C(=C\[N+](=O)[O-])N1c1ccc(OC(F)(F)F)cc1` ?
RESULT: 6.31 µM (inconclusive)

QUERY: Also `Cc1c(C(=O)NN2CCOCC2)nn(-c2ccc(Cl)cc2Cl)c1-c1ccc(I)cc1` ?
RESULT: 31.6 µM (inconclusive)

QUERY: Also `Cc1ccc(Oc2ncc(CN3CCOCC3)s2)cc1` ?
RESULT: 22.4 µM (inconclusive)

QUERY: Also `O=C(c1ccccc1)c1c[nH]c(C(=O)NCCCN2CCOCC2)c1` ?
RESULT: 25.1 µM (inconclusive)

QUERY: Also `COc1ccc(CNc2cc(-c3ccccc3CN(C)C)ncn2)c(OC)c1` ?
RESULT: 15.8 µM (inconclusive)

QUERY: Also `COc1ccc(NC(=S)N2CCN(C/C=C/c3ccccc3)CC2)cc1OC` ?
RESULT: 28.2 µM (inconclusive)

QUERY: Also O=C(NC(NC(=S)Nc1cc(Cl)ccc1Cl)C(Cl)(Cl)Cl)c1ccco1 (centres undefined) ?
RESULT: 12.6 µM (inconclusive)

QUERY: Also `COc1ccc(Oc2ncc3nc(-c4ccc(OC)cc4)c(=O)n(Cc4cccs4)c3n2)cc1` ?
RESULT: 15.8 µM (inconclusive)

QUERY: Also `O=C(Nc1ccccc1)N1CCSc2cc(Cl)ccc21` ?
RESULT: 3.55 µM (inconclusive)

QUERY: Also COC(=O)C1(C)C=C2C(=C(C)C(=O)C2C)CN1 (centres undefined) ?
RESULT: 31.6 µM (inconclusive)

QUERY: Also `Cc1ccc2oc(-c3cccc(NC(=S)NC(=O)/C=C/c4ccco4)c3)nc2c1` ?
RESULT: 3.55 µM (inconclusive)

QUERY: Also CCC(=O)c1ccc(OCC(O)CN(CCc2ccccc2)Cc2ccccc2)cc1 (centres undefined) ?
RESULT: 20 µM (inconclusive)

QUERY: Also `O=C(O)CC/C=C\C[C@@H]1CO[C@H](c2ccccc2Cl)O[C@@H]1c1ccccc1O` ?
RESULT: 39.8 µM (inconclusive)

QUERY: Also `CCN1CCN(CCCNC(=O)c2cc3cc4ccc(OC)cc4nc3o2)CC1` ?
RESULT: 31.6 µM (inconclusive)

QUERY: Also `c1ccc(N2CCCC3(CCNCC3)C2)nc1` ?
RESULT: 25.1 µM (inconclusive)

QUERY: Also `O=c1c(-c2ccc(F)cc2)nc2cnc(Nc3ccccc3)nc2n1Cc1cccs1` ?
RESULT: 2 µM (inconclusive)

QUERY: Also `C/C(=N\OC(=O)c1ccc(F)cc1)c1nccs1` ?
RESULT: 28.2 µM (inconclusive)

QUERY: Also C[C@@H](C(=O)OC1C[C@H]2CC[C@@H](C1)N2C)c1ccc(Br)cc1 (some centres undefined) ?
RESULT: 39.8 µM (inconclusive)

QUERY: Also `Fc1ccc(Cn2c(SCc3ccc(F)c(F)c3)nnc2C(F)(F)F)cc1` ?
RESULT: 17.8 µM (inconclusive)

QUERY: Also Cc1cc2nc(C3CCCN(C(S)=Nc4ccccc4)C3)[nH]c2cc1C (centres undefined) ?
RESULT: 1.58 µM (inconclusive)

QUERY: Also `COc1cccc(Cn2c(=O)c(-c3ccc(F)cc3)nc3cnc(N4CCNCC4)nc32)c1` ?
RESULT: 25.1 µM (inconclusive)

QUERY: Also `Cc1ccc(SCCNC(=O)c2ccc(C)c(S(=O)(=O)Nc3ccccc3C)c2)cc1` ?
RESULT: 14.1 µM (inconclusive)

QUERY: Also CN/C(=N/CCSCc1nc[nH]c1C)NC#N [CIMETIDINE] ?
RESULT: 50.1 µM (inconclusive)

====

- MEASUREMENT DESCRIPTION: alpha-synuclein stem-loop luciferase translation blockers – H4 neuroglioma cells, luminescence, confirmation (AID 1988)
- Assay type: functional, cell-based
Active and inactive are the calls of the source.
MEASURE NAME: EC50

QUERY: For the compound `COc1ccc(OCCn2cc(/C=C(\C#N)C(=O)NCc3ccco3)c3ccccc32)cc1` , what EC50 is on record?
RESULT: 13.3 µM (active)

QUERY: Also `CN1/C(=C/C(=O)c2nc(S(C)(=O)=O)ncc2Cl)C(C)(C)c2ccccc21` ?
RESULT: 9.18 µM (active)

QUERY: Also `COc1ccc(C2=C(C=O)Cc3ccccc3O2)cc1` ?
RESULT: > 120 µM (not active)

QUERY: Also `COc1ccc(-c2ccc(NC(=O)c3ccco3)cc2)nn1` ?
RESULT: 5.37 µM (active)

QUERY: Also `N#Cc1cnn2c1nc(N1CCCCC1)c1ccccc12` ?
RESULT: 12.7 µM (active)

====

- MEASUREMENT DESCRIPTION: Trypanosoma cruzi growth suppression in host cells – NIH3T3 host cells, beta-gal luminescence, confirmation (AID 2044);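 note: intracellular parasites grown in NIH/3T3 mouse fibroblasts as host cells; luminescent beta-galactosidase reporter signal from transgenic T. cruzi replicating inside host cells; inhibitors lower the luminescence signal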
- Type: functional, cell-based
Activity calls are given as the source filed them.
MEASURE NAME: EC50

QUERY: For the molecule `CC(C)(C)c1cc(NCCCn2ccnc2)n2ncc(-c3ccc(Cl)cc3)c2n1` , what EC50 is on record?
RESULT: 1.49 µM (active)

QUERY: Also `CCOc1cc(NC(=O)c2ccccc2C(=O)O)c(OCC)cc1NC(=O)c1ccccc1F` ?
RESULT: 5.83 µM (active)

QUERY: Also `Cc1ccc(C(=O)C[n+]2cccc3cc(C)ccc32)cc1` ?
RESULT: 11.2 µM (active)

QUERY: Also `O=C(Nc1cccc(N2C(=O)C=CC2=O)c1)c1cccs1` ?
RESULT: 2.12 µM (active)

QUERY: Also `C/C(=N/NC(N)=S)c1ccc(Br)s1` ?
RESULT: 2.07 µM (active)

QUERY: Also `Cc1ccc(S(=O)(=O)c2ncccc2[N+](=O)[O-])cc1` ?
RESULT: 2.96 µM (active)

QUERY: Also `CC(C)N=C(S)NC(c1ccccc1)(c1ccccc1)c1ccccc1` ?
RESULT: 3.99 µM (active)

QUERY: Also `CN1CCC(OC(=O)c2ccccc2)CC1` ?
RESULT: 0.263 µM (active)

QUERY: Also `Cc1ccccc1OCC(=O)N/N=C/c1ccc([N+](=O)[O-])o1` ?
RESULT: 0.151 µM (active)

QUERY: Also CCC1CCc2sc(C(=O)NCC(c3ccc(OC)cc3)N3CCCC3)cc2C1 (centres undefined) ?
RESULT: 1.83 µM (active)

QUERY: Also SC(COCc1ccccc1)CN1CCN(Cc2ccc3c(c2)OCO3)CC1 (centres undefined) ?
RESULT: 2.1 µM (active)

QUERY: Also `Cc1c(Cl)ccc2c(C(=O)Nc3cc(C(C)(C)C)on3)cc(-c3ccccn3)nc12` ?
RESULT: 1.95 µM (active)

QUERY: Also `O=[N+]([O-])c1nn(-c2ccc3c(c2)OCCO3)[n+]([O-])c1NC1CCN(Cc2ccccc2)CC1` ?
RESULT: 0.163 µM (active)

QUERY: Also `Cc1c(C(=O)NC(=S)NCc2cccnc2)oc2ccccc12` ?
RESULT: 1.93 µM (active)

====

- TARGET DESC: Replicative DNA helicase DnaB (Mycobacterium tuberculosis)
- MEASUREMENT DESCRIPTION: DnaB intein splicing inhibitors, dose response, biochemical, cell-free fluorescence (AID 449749)
- Type: functional
Calls of active or inactive are those of the source.
The reply should be one of these categories: 1 = active, 0 = inactive

QUERY: Which result was noted for this compound in the test: COc1ccc(C(N)c2nccc3cc(OC)c(OC)cc23)cc1OC (configuration not stated)
RESULT: 0

QUERY: Also O=C1c2ccccc2OC2(C=Cc3ccccc3O2)N1Cc1ccccc1 (configuration not stated) ?
RESULT: 1

QUERY: Also `O=C(O)/C=C/C(=O)Nc1ccc(SC(F)(F)C(F)(F)C(F)(F)F)cc1` ?
RESULT: 1

QUERY: Also `CC(=O)c1ccc(Sc2nnnn2-c2ccccc2)c([N+](=O)[O-])c1` ?
RESULT: 1

QUERY: Also `O=C1C=C(Nc2cccc3cccnc23)c2ccccc2C1=O` ?
RESULT: 0

QUERY: Also `CC(C)NC(=S)NC(c1ccccc1)(c1ccccc1)c1ccccc1` ?
RESULT: 1

QUERY: Also `COc1ccc(COC(=O)N/N=C(\C)CC(=O)Nc2ccc(Cl)cn2)cc1` ?
RESULT: 1

QUERY: Also `CCc1ccc(/C=C/C(=O)C2C(=O)c3ccccc3C2=O)cc1` ?
RESULT: 1

QUERY: Also CCc1n[nH]c2c1C(c1ccc(C)o1)C(C#N)=C(N)O2 (configuration not stated) ?
RESULT: 1

QUERY: Also `Cc1ccc2c(c1)Oc1ccc(NC(=O)CCl)cc1C(=O)N2` ?
RESULT: 1

QUERY: Also CC1(N2CCOCC2)CC2(O)C(=[N+]1[O-])CCc1nonc12 (configuration not stated) ?
RESULT: 0

QUERY: Also CC1CCCN(C(=O)COc2ccc(NC(=O)c3cccs3)cc2)C1 (configuration not stated) ?
RESULT: 0

QUERY: Also `O=C1CS/C(=C\[N+](=O)[O-])N1c1ccc(OC(F)(F)F)cc1` ?
RESULT: 1

QUERY: Also `O=C(CCN1C(=O)/C(=C\c2ccccc2F)SC1=S)Nc1ccc(C(=O)O)c(O)c1` ?
RESULT: 1

QUERY: Also `Oc1ccc(O)c2c1C1c3ccccc3C2c2ccccc21` ?
RESULT: 1

QUERY: Also COC(CN(C(=O)CCl)C(C(=O)NC1CCCC(C)C1C)c1ccc(C)cc1)OC (configuration not stated) ?
RESULT: 1

QUERY: Also `O=C(O)c1ccccc1Nc1cc(Cl)c2nonc2c1[N+](=O)[O-]` ?
RESULT: 1
